- Tested on: Enterococcus faecalis
- TEST_DETAILS: Antibacterial activity against Enterococcus faecalis STCO-19
- Format: functional
Exam item: assign Yes to entries whose MIC is below 4 mg/L and No to entries at or above 4 mg/L. Note that a value of exactly 4 mg/L receives No.

**Q:** Is MIC of CC(=O)NCC1CN(c2c(F)cc(C(C)=O)cc2F)C(=O)O1 (centres undefined) strictly below 4 mg/L?
**A:** No

**Q:** Say whether its MIC is strictly beneath 4 mg/L. Entry: CC(=O)NCC1CN(c2ccc(C(C)=O)c(Cl)c2)C(=O)O1 (centres undefined)
**A:** Yes

**Q:** Is MIC strictly under 4 mg/L for the entry CC(=O)NC[C@H]1CN(c2ccc(C(C)=O)cc2)C(=O)O1 [DUP-721] ?
**A:** Yes

###

- System: Enterococcus faecalis
- TEST_DETAILS: Antibacterial activity against Enterococcus faecalis STCO-19
- Type: functional
MEASURED_METRIC: MIC (µg/mL)
Answers are plain numbers, in µg/mL.

Below are worked cases with known answers.
CC(=O)NCC1CN(c2cccc(Cl)c2)C(=O)O1 (stereo unspecified) :: 128
CC(=O)NC[C@H]1CN(c2ccc3ccccc3c2)C(=O)O1 :: 8
CC(=O)NCC1CN(c2ccc(C(C)=O)c(N)c2)C(=O)O1 (stereo unspecified) :: 4
CC(=O)NCC1CN(c2ccc(C(C)=O)c(Br)c2)C(=O)O1 (stereo unspecified) :: 8
CSc1ccc(N2CC(CNC(C)=O)OC2=O)cc1[N+](=O)[O-] (stereo unspecified) :: 8

Report MIC for each item below.
1. CC(=O)NC[C@H]1CN(c2ccc3c(c2)CCC3)C(=O)O1
2. CC(=O)NCC1CN(c2cccc(I)c2)C(=O)O1 (stereo unspecified)

**A:**
1. 4
2. 128

###

Please go through the items and note down their MIC.
- Tested on: Enterococcus faecalis
- TEST_DETAILS: Antibacterial activity against Enterococcus faecalis STCO-19
- Type: functional
One number for each entry, in µg/mL.

The cases that follow already have their MIC on record.
CC(=O)NCC1CN(c2ccc([S+](C)[O-])c(C)c2)C(=O)O1 (stereo unspecified) :: 8
CC(=O)NCC1CN(c2ccc([S+](C)[O-])cc2)C(=O)O1 (stereo unspecified) :: 4

**Q:** Dear colleague, please send me the reported MIC for CCCc1cccc(N2CC(CNC(C)=O)OC2=O)c1 (stereo unspecified) when you can.
**A:** 128

###

- System: Enterococcus faecalis
- TEST_DETAILS: Antibacterial activity against Enterococcus faecalis STCO-19
- Type: functional
MEASURED_METRIC: MIC (µg/mL)
One number for each entry, in µg/mL.

Example results:
CSc1cccc(N2CC(CNC(C)=O)OC2=O)c1 (configuration not stated) :: 16
CC(=O)NC[C@H]1CN(c2ccc(C)c(C)c2)C(=O)O1 :: 16

Answer for every listed entry: what is its MIC? The entries follow.
1. CSc1ccc(N2CC(CNC(C)=O)OC2=O)cc1 (configuration not stated)
2. CC(=O)NC[C@H]1CN(c2ccc3c(c2)CCC3=O)C(=O)O1 [PNU-82965]
3. COc1cccc(N2CC(CNC(C)=O)OC2=O)c1 (configuration not stated)
4. CC(=O)NCC1CN(c2cccc(Br)c2)C(=O)O1 (configuration not stated)

**A:**
1: 4; 2: 2; 3: 64; 4: 64

###

- Tested on: Enterococcus faecalis
- TEST_DETAILS: Antibacterial activity against Enterococcus faecalis STCO-19
- Type: functional
// boundary case: MIC equal to 30 µg/mL maps to label 0; strictly smaller maps to label 1

CC(=O)NC[C@H]1CN(c2ccc([N+](=O)[O-])cc2[N+](=O)[O-])C(=O)O1 :: label 0
COc1cc(OC)cc(N2CC(CNC(C)=O)OC2=O)c1 (stereo unspecified) :: label 0
CSc1cc(N2CC(CNC(C)=O)OC2=O)ccc1C(C)=O (stereo unspecified) :: label 0
C#Cc1ccc(N2C[C@H](CNC(C)=O)OC2=O)c(F)c1 :: label 0
CC(=O)NCC1CN(c2ccc(C(C)=O)c(O)c2)C(=O)O1 (stereo unspecified) :: label 1

**Q:** In plain terms, does "CC(=O)NC[C@H]1CN(c2ccc(C(C)=O)cc2F)C(=O)O1" come in under 30 µg/mL for MIC?
**A:** label 0

**Q:** I'd appreciate it if you could check whether CC(=O)NCC1CN(c2cccc(F)c2)C(=O)O1 (stereo unspecified) has MIC smaller than 30 µg/mL.
**A:** label 0

**Q:** A record lists "COc1cc([N+](=O)[O-])ccc1N1C[C@H](CNC(C)=O)OC1=O" . Is its MIC below 30 µg/mL?
**A:** label 0

**Q:** Given the entry CC(=O)NCC1CN(c2ccc([S+](C)[O-])c([N+](=O)[O-])c2)C(=O)O1 (stereo unspecified) , would its reported MIC be below 30 µg/mL?
**A:** label 1

**Q:** Consider the compound CC(=O)NCC1CN(c2cc(C)cc(C)c2)C(=O)O1 (stereo unspecified) . Is its MIC strictly less than 30 µg/mL?
**A:** label 0

**Q:** is_below(MIC, 30 µg/mL) for CC(=O)NCC1CN(c2cccc(C)c2)C(=O)O1 (stereo unspecified) ?
**A:** label 0

**Q:** Decide: MIC of CC(=O)NCC1CN(c2ccc(C(C)=O)c(I)c2)C(=O)O1 (stereo unspecified) strictly below 30 µg/mL?
**A:** label 0

**Q:** Lab note: MIC threshold 30 µg/mL. Does this compound come in strictly under it? COc1cc(N2CC(CNC(C)=O)OC2=O)ccc1C(C)=O (stereo unspecified)
**A:** label 0

**Q:** is_below(MIC, 30 µg/mL) for "CC(=O)NC[C@H]1CN(c2ccc(C(C)=O)c(C)c2)C(=O)O1" ?
**A:** label 1

**Q:** Please indicate whether the reported MIC of CC(=O)NCC1CN(c2cccc([N+](=O)[O-])c2)C(=O)O1 (stereo unspecified) is strictly below 30 µg/mL.
**A:** label 1

**Q:** Please check: MIC for CCc1cccc(N2CC(CNC(C)=O)OC2=O)c1 (stereo unspecified) , strictly under 30 µg/mL or not?
**A:** label 1

**Q:** Quick check: does "CCCc1ccc(N2C[C@H](CNC(C)=O)OC2=O)cc1" have MIC under 30 µg/mL?
**A:** label 1

**Q:** Hello, is MIC of the following compound strictly smaller than 30 µg/mL? CC(=O)NCC1CN(c2ccc(C(C)=O)c(F)c2)C(=O)O1 (stereo unspecified)
**A:** label 1

**Q:** # TODO verify MIC < 30 µg/mL strictly for this compound: CCc1cc(N2CC(CNC(C)=O)OC2=O)ccc1C(C)=O (stereo unspecified)
**A:** label 1

**Q:** State whether 30 µg/mL exceeds MIC recorded for CC(=O)NCC1CN(c2cccc(O)c2)C(=O)O1 (stereo unspecified) .
**A:** label 0

**Q:** Hello, is MIC of the following compound strictly smaller than 30 µg/mL? CC(=O)NCC1CN(c2ccccc2)C(=O)O1 (stereo unspecified)
**A:** label 0

###

- Tested on: Enterococcus faecalis
- TEST_DETAILS: Antibacterial activity against Enterococcus faecalis STCO-19
- Assay type: functional
MEASURED_METRIC: MIC

Below: 2 compounds and their reported MIC.
CC(=O)NC[C@H]1CN(c2ccc3[nH]ccc3c2)C(=O)O1 :: > 128 µg/mL
CCCc1cc(N2CC(CNC(C)=O)OC2=O)ccc1C(C)=O (stereo not drawn) :: > 128 µg/mL

**Q:** Return MIC (reported value) for this compound: "COc1ccc([N+](=O)[O-])cc1N1C[C@H](CNC(C)=O)OC1=O"
**A:** > 128 µg/mL
